Target: DPP4 (Homo sapiens, UniProt P27487)
Sequence (P27487 whole entry): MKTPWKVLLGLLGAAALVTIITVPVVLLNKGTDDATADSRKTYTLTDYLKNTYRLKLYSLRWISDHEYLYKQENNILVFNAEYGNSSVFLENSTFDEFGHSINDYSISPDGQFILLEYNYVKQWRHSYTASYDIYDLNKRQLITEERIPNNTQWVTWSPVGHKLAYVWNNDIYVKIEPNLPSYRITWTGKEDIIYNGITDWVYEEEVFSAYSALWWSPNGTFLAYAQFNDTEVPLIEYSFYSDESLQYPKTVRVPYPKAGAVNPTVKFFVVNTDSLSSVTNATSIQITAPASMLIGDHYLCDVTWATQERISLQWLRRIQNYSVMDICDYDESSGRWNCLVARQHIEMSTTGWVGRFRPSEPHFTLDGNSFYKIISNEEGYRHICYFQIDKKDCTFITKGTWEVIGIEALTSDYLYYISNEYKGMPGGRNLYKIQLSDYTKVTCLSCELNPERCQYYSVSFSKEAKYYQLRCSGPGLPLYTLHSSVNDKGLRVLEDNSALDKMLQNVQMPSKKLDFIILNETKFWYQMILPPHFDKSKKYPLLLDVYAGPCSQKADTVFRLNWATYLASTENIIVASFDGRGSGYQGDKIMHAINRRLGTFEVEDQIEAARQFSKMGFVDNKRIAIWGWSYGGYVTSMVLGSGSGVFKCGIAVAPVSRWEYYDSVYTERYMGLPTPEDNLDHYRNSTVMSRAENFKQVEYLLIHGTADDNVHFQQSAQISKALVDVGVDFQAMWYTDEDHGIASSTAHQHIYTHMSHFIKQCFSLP
Assay: DPP4 inhibition, fluorogenic substrate H-Gly-Pro-AMC
Assay type: biochemical
Design: purchased R&D Systems
Details: recombinant human DPP4
Reported IC50 values are given for each entry in this list.
Just the number in µM, nothing appended.

INSERT INTO measurements (compound, unit_symbol, numeric_readout) VALUES
  ('N#C[C@@H]1CCCN1C(=O)CN1CC[C@@H](Nc2ccc(F)c3ncccc23)C1 [Example 199]', 'µM', 2.62),
  ('CN(C(=O)c1ccc(N[C@H]2CCN(CC(=O)N3CCC[C@H]3C#N)C2)c2cccnc12)c1ccccc1 [Example 289]', 'µM', 14.2),
  ('N#C[C@@H]1C[C@H](F)CN1C(=O)CN1CCC(Nc2cc(Cl)c3ncccc3c2)CC1 [Example 376]', 'µM', 3.51),
  ('N#C[C@@H]1C[C@H](F)CN1C(=O)CN1CCC(Nc2ccc3nc(C(F)(F)F)ccc3c2)CC1 [Example 381]', 'µM', 10.6),
  ('N#C[C@@H]1C[C@H](F)CN1C(=O)CN1CC[C@@H](Nc2cnc3nc(Cl)ccc3c2)C1 [Example 172]', 'µM', 1.87),
  ('N#C[C@@H]1CCCN1C(=O)CN1CC[C@@H](Nc2cc(F)c3ncccc3c2)C1 [Example 221]', 'µM', 11.1),
  ('CN(c1cccc2ccncc12)C1CCN(CC(=O)N2C[C@@H](F)C[C@H]2C#N)CC1 [Example 320]', 'µM', 0.41),
  ('N#C[C@@H]1CCCN1C(=O)CN1CC[C@@H](Nc2ccnc3ccc(F)cc23)C1 [Example 225]', 'µM', 34.2);

### Prompt Any idea what its IC50 is? The compound is CN(c1ccc(C(F)(F)F)c2ncccc12)[C@H]1CCN(CC(=O)N2C[C@@H](F)C[C@H]2C#N)C1 [Example 159]
### Response 1.86

### Prompt # input compound: COc1cnc2cccc(NC3CCN(CC(=O)N4C[C@@H](F)C[C@H]4C#N)CC3)c2c1 [Example 348] ; wanted: its IC50
### Response 3.6

### Prompt Tell me the measured IC50 of COc1ccc2cc(N(C)C3CCN(CC(=O)N4C[C@@H](F)C[C@H]4C#N)CC3)cnc2c1 [Example 328] , please.
### Response 21.4

### Prompt # IC50 lookup, item N#C[C@@H]1C[C@H](F)CN1C(=O)CN1CCC(Nc2ccnc3cccnc23)CC1 [Example 380]
### Response 8.16

### Prompt Reported IC50, compound N#C[C@@H]1C[C@H](F)CN1C(=O)CN1CCC(Nc2ccnc3ccc(F)cc23)CC1 [Example 337] : ____
### Response 8.18

### Prompt Item CCOc1ccc(NC2CCN(CC(=O)N3CCC[C@H]3C#N)CC2)c2cccnc12 [Example 370] has what recorded IC50?
### Response 36.8

---

Target: Recombinant human FAP (Homo sapiens)
Construct: purchased R&D systems
Sequence (Q12884 whole entry): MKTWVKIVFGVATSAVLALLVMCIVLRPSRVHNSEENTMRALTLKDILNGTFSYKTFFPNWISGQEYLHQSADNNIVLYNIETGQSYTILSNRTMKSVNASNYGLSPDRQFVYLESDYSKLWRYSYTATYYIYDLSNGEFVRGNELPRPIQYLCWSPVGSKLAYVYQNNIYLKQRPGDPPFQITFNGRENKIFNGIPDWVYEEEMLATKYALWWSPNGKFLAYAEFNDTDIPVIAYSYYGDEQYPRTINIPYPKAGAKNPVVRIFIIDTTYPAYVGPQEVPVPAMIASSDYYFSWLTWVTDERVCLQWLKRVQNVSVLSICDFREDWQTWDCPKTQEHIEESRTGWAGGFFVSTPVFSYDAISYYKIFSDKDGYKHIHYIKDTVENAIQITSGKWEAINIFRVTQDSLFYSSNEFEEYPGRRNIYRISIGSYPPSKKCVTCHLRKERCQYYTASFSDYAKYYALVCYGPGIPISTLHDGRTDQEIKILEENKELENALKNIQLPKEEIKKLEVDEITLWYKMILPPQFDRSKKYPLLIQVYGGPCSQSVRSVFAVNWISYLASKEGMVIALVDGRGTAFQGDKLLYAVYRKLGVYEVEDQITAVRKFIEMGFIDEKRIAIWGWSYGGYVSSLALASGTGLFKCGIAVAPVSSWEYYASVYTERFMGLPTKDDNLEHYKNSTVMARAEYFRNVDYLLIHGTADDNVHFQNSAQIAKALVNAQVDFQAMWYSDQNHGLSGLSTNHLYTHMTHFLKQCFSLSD
Test: FAP inhibition, fluorogenic substrate Z-Gly-Pro-AMC
Assay type: biochemical
Settings: read-out: hFAP inhibition % at 1 μM
Tick Satisfied if inhibition at 1 µM is 60% or greater. Tick Not satisfied if inhibition at 1 µM is less than 60%.

INSERT INTO assay_data (molecule, group_label) VALUES
  ('COC(=O)C1Cc2ccc(O[C@H]3CCN(CC(=O)N4CCC[C@H]4C#N)C3)cc2O1 (some centres unmarked)', 'Satisfied'),
  ('N#C[C@@H]1CCCN1C(=O)CN1CC[C@H](NS(=O)(=O)c2cc3ccccc3o2)C1', 'Not satisfied'),
  ('N#C[C@@H]1CCCN1C(=O)CN1CC[C@H](Oc2ccccc2Cc2ccccc2)C1', 'Not satisfied'),
  ('N#C[C@@H]1CCCN1C(=O)CN1CC[C@H](Oc2ccccc2C(=O)Nc2ccccc2)C1', 'Not satisfied'),
  ('N#C[C@@H]1CCCN1C(=O)CN1CC[C@H](Oc2ccc(Cc3ccccc3)cc2)C1', 'Not satisfied'),
  ('N#C[C@@H]1CCCN1C(=O)CN1CC[C@H](Oc2ccc3c(c2)OCO3)C1', 'Satisfied');

### Prompt Threshold query (inhibition at 1 µM >= 60%) on N#C[C@@H]1CCCN1C(=O)CN1CC[C@H](NC(=O)c2nccc3ccccc23)C1
### Response Satisfied
